# System Name: Acetylcholinesterase (Homo sapiens, UniProt P22303)
# Sequence (P22303 whole entry): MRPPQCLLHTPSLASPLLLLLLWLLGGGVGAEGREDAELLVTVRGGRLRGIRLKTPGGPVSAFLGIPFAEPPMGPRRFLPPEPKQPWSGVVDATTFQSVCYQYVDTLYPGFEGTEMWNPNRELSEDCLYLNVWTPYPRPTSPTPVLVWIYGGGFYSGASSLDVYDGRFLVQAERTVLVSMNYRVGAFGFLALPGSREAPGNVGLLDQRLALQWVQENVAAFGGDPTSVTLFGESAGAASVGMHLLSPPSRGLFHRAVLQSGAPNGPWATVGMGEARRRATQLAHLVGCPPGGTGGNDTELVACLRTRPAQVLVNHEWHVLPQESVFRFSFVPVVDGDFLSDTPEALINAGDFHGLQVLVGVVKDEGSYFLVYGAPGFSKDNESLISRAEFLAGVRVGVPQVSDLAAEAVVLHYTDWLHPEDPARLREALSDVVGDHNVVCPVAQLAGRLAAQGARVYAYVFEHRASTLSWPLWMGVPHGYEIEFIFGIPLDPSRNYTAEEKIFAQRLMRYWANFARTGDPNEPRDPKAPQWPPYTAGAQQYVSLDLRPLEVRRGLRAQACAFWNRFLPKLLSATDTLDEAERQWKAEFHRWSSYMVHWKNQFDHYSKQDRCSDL
# Protocol Text: Inhibition of human recombinant AchE
Parameter Measured: pIC50
Would you please state pIC50, meaning minus log10 of the concentration in mol/L, as a bare number?

Query: What value of pIC50 has been recorded for this entry: CCCCCCCCCCCC1=CC(=O)C=CC1=O
Response: 5.10

---

# System Name: UniProt P22303
# Protocol Text: Inhibition of AChE (unknown origin)
Parameter Measured: IC50

Query: Would you mind telling me what IC50 value was observed for COc1cc(O)c(C(=O)/C=C/c2ccc(F)cc2)cc1I ?
Response: 0.00938 µM

Query: What value of IC50 has been recorded for this entry: O=c1c(/C=N/Nc2ccc(C(F)(F)F)cc2)coc2cc3oc(-c4cccc(F)c4)cc3cc12
Response: 7.6 µM

Query: Record request: IC50 value, item CC(C)=CCC/C(C)=C/Cc1c(O)ccc2cc(-c3cc(O)cc(O)c3CC=C(C)C)oc12
Response: 23 µM

Query: I'd like to know its IC50. The molecule in question is COc1cc2c(cc1OC)CC(CC1CCN(CCCNc3c4c(nc5cc(Cl)ccc35)CC3C=C(C)CC4C3)CC1)C2 (single isomer, unassigned; (-))
Response: 0.00261 µM

---

# System Name: Acetylcholinesterase (Homo sapiens)
# Protocol Text: Inhibition of AChE (unknown origin)
Record form. Attribute: log10 IC50. Fill in for each entry.
Hey, these are logged values: log10 of IC50, nM being the unit before logging.

Query: // lookup log10 IC50 for O=C(/C=C/c1ccc(O)c(O)c1)O[C@@H]1[C@H](O)C[C@@](O)(C(=O)O)C[C@H]1OC(=O)/C=C/c1ccc(O)c(O)c1
Response: 3.33

Query: # input molecule: COc1ccccc1C(=O)N1Cc2ccc(N3C(=O)c4ccccc4C3=O)cc2CC1=O ; wanted: its log10 IC50
Response: 1.91

Query: Quick one: log10 IC50 of COc1ccccc1NC(=O)C1CCN(C(=O)c2ccccc2)CC1 ?
Response: 0.93

Query: # query: log10 IC50 of entry CC(C)=CCCC1(C)C=Cc2c(ccc3cc(-c4cc(O)cc(O)c4CC=C(C)C)oc23)O1 (stereo not given)
Response: 3.66

Query: Any idea what its log10 IC50 is? The molecule is COc1ccc(NC(=O)C2CCN(C(=O)c3ccccc3)CC2)cc1
Response: 0.99

Query: Reported log10 IC50 for Cc1cc2c(c(C)c1CCO[C@@H]1O[C@H](CO)[C@@H](O)[C@H](O)[C@H]1O)C(=O)[C@H](C)C2 : what is it?
Response: 3.41

Query: log10 IC50; subject: COc1cc(/C=C/c2nnc(-c3ccc(C(F)(F)F)cc3)o2)ccc1O
Response: -1.17

Query: Data request, read-out log10 IC50, for CC(C)=CCC/C(C)=C/CC/C(C)=C\Cc1c(O)cc(O)c(CC=C(C)C)c1-c1cc2ccc(O)cc2o1
Response: 4.14

Query: Requested read-out: log10 IC50. Entry: COc1cc2c(cc1OC)CC(CC1CCN(CCNc3c4c(nc5cc(Cl)ccc35)CC3C=C(C)CC4C3)CC1)C2 (stereo not given)
Response: 1.11

Query: Can you look up the measured log10 IC50 of Cc1cccc(C(=O)N2Cc3ccc(N4C(=O)c5ccccc5C4=O)cc3CC2=O)c1 for me?
Response: 1.41

Query: log10 IC50 lookup needed for O=c1c(/C=N/Nc2ccc(C(F)(F)F)cc2)coc2c1ccc1oc(-c3cccc(F)c3)cc12 , thanks.
Response: 4.02

Query: Given the entry CCC1=CC2Cc3nc4cc(Cl)ccc4c(NCCCN4CCC(CC5Cc6cc(OC)c(OC)cc6C5)CC4)c3C(C1)C2 (stereo in doubt; (-)-36b) , report its measured log10 IC50.
Response: 0.59

Query: Which log10 IC50 value belongs to COc1cc(/C=C/c2nnc(-c3ccc(F)cc3)o2)ccc1O ?
Response: -0.55

Query: Give its log10 IC50 value. Item: COc1ccc(NCC2CCN(Cc3ccccc3)CC2)cc1
Response: 2.22

Query: // returns reported log10 IC50 for input COc1ccccc1NCC1CCN(Cc2ccccc2)CC1
Response: 2.20

Query: Look up log10 IC50: O=c1c(O)c(-c2ccc(F)cc2)oc2cc(F)c(I)cc12
Response: 0.51

Query: What value of log10 IC50 has been recorded for this entry: COc1cc(/C=C/c2nnc(-c3ccc(Cl)cc3Cl)o2)ccc1O
Response: -0.66

Query: I'd like to know its log10 IC50. The molecule in question is COc1ccc(-c2oc3cc(OC)c(I)cc3c(=O)c2O)cc1
Response: 0.86

Query: Consider the molecule shown here: O=c1c(/C=N/Nc2ccc(C(F)(F)F)cc2)coc2cc3oc(-c4cccc(Cl)c4)cc3cc12 What is its recorded log10 IC50?
Response: 4.26

Query: // query log10 IC50 value for entry COc1cc(/C=C/c2nnc(-c3ccc(Cl)cc3)o2)ccc1O
Response: -0.48

Query: Give its log10 IC50 value. Item: Oc1cc(O)cc(Oc2c(O)cc(O)c3c2Oc2c(cc(O)c(-c4c(O)cc5c(c4O)Oc4c(Oc6cc(O)cc(O)c6)c(O)cc(O)c4O5)c2O)O3)c1
Response: 3.66

Query: Returns the measured log10 IC50 for the input molecule. Input: C/C(=C\C1=CCN(C(=O)CCc2ccccc2)C(=O)C1)N1C(=O)c2ccccc2C1=O
Response: 1.74

Query: Consider the molecule Cc1cc2c(c(C)c1CCO[C@@H]1O[C@H](CO)[C@@H](O)[C@H](O)[C@H]1O)C(=O)C(C)(C)[C@H]2O and give its measured log10 IC50.
Response: 4.44

Query: Give the measured log10 IC50 of O=C(/C=C/c1ccc(F)cc1)c1cc(I)c(Br)cc1O .
Response: 1.04

Query: Bench note: what log10 IC50 did O=C(CCc1ccc2nc(-c3ccccc3)c3c(c2c1)OCCC3)NCCCCCCCNc1c2c(nc3cc(Cl)ccc13)CCCC2 show?
Response: 1.06

Query: // query log10 IC50 value for entry CCC1=CC2Cc3nc4cc(Cl)ccc4c(NCCN4CCC(CC5Cc6cc(OC)c(OC)cc6C5)CC4)c3C(C1)C2 (single isomer, unassigned; (-))
Response: 1.46

Query: # log10 IC50 lookup, item COc1ccc(-c2cc3cc4c(=O)c(/C=N/Nc5ccc(C(F)(F)F)cc5)coc4cc3o2)cc1
Response: 3.73

Query: Value lookup for log10 IC50; key = COc1cc2c(cc1OC)CC(CC1CCN(CCCNc3c4c(nc5cc(Cl)ccc35)CC3C=C(C)CC4C3)CC1)C2 (racemic)
Response: 0.73

Query: Any idea what log10 IC50 was measured for O=c1c(O)c(-c2ccc(O)c(O)c2)oc2cc(O)cc(O)c12 ?
Response: 3.46

Query: For the molecule Cc1cc2c(c(C)c1CCO[C@@H]1O[C@H](CO)[C@@H](O)[C@H](O)[C@H]1O)C(=O)[C@@H](C)[C@H]2O , what log10 IC50 is on record?
Response: 3.96

Query: Request the reported log10 IC50 associated with O=c1c(O)c(-c2ccc(Cl)cc2)oc2cc(F)c(I)cc12
Response: 0.54

Query: log10 IC50; subject: C[C@@H]1O[C@@H](OC[C@H]2O[C@@H](Oc3c(-c4ccc(O)c(O)c4)oc4cc(O)cc(O)c4c3=O)[C@H](O)[C@@H](O)[C@@H]2O)[C@H](O)[C@H](O)[C@H]1O
Response: 5.05

Query: Endpoint output: log10 IC50 of COc1ccc(NCC2CCN(Cc3ccccc3)CC2)cc1OC . Value?
Response: 2.16

---

# System Name: Beta-secretase 1 (Homo sapiens, UniProt P56817)
# Sequence (P56817 whole entry): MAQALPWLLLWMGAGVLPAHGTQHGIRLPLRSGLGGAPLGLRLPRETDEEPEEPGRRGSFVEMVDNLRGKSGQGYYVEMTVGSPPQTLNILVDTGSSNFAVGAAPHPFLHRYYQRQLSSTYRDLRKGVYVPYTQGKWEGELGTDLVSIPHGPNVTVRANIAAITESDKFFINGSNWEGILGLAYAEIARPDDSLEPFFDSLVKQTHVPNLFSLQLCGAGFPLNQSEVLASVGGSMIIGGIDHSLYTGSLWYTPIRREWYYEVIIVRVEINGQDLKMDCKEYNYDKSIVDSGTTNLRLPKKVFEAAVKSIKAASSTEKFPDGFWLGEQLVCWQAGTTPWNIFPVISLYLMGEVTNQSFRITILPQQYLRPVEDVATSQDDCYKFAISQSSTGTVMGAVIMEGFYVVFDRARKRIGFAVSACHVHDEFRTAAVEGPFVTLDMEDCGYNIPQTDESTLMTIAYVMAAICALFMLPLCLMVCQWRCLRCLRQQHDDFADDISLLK
# Protocol Text: Inhibition of BACE1 (unknown origin)
Parameter Measured: IC50 (nM)
Field: numeric (nM). Do not append units.

Query: Please report the recorded IC50 for COc1cc(/C=C/c2nnc(-c3ccc(F)cc3F)o2)ccc1O .
Response: 0.624

Query: Requested field: IC50. Item: CC12CC(c3c(O)cc(-c4cc5ccc(O)cc5o4)cc3O)CC3c4ccc(O)cc4OC31C2 (stereo not drawn)
Response: 1040

Query: Param item = COc1ccc(NC(=O)C2CCN(C(=O)c3ccccc3)CC2)cc1 ; retrieve measured IC50.
Response: 19.1

Query: Could you tell me which IC50 is on file for O=C1Cc2cc(N3C(=O)c4ccccc4C3=O)ccc2CN1C(=O)c1ccccc1 ?
Response: 5.87

Query: Returns the measured IC50 for the input compound. Input: COc1ccccc1C(=O)N1Cc2ccc(N3C(=O)c4ccccc4C3=O)cc2CC1=O
Response: 2.96

Query: # IC50 lookup, item COc1ccccc1NC(=O)C1CCN(C(=O)c2ccccc2)CC1
Response: 18.5

Query: Any idea what IC50 was measured for CC(C)=CCC/C(C)=C/CC/C(C)=C\Cc1c(O)cc(O)c(CC=C(C)C)c1-c1cc2ccc(O)cc2o1 ?
Response: 2030

Query: Value lookup for IC50; key = O=C(/C=C/c1ccc(O)c(O)c1)O[C@@H]1[C@H](O)C[C@@](O)(C(=O)O)C[C@H]1OC(=O)/C=C/c1ccc(O)c(O)c1
Response: 3310

Query: Requested read-out: IC50. Entry: C[C@@H]1O[C@@H](OC[C@H]2O[C@@H](Oc3c(-c4ccc(O)c(O)c4)oc4cc(O)cc(O)c4c3=O)[C@H](O)[C@@H](O)[C@@H]2O)[C@H](O)[C@H](O)[C@H]1O
Response: 3.8

Query: Sample O=C(/C=C/c1ccc(F)cc1)c1cc(I)c(Br)cc1O — what was its IC50?
Response: 4.7

Query: What IC50 value was documented for this compound, COc1ccc(/C=C/C(=O)c2cc(I)c(Cl)cc2O)cc1 ?
Response: 13.8

Query: Given the compound Cc1cc2c(c(C)c1CCO[C@@H]1O[C@H](CO)[C@@H](O)[C@H](O)[C@H]1O)C(=O)C(C)(C)[C@H]2O , what is its reported IC50?
Response: 10700

Query: Any idea what IC50 was measured for COc1ccc(-c2oc3cc(OC)c(I)cc3c(=O)c2O)cc1 ?
Response: 22.4

Query: Could you share which IC50 value was measured for O=c1c(O)c(-c2ccc(Cl)cc2)oc2cc(F)c(I)cc12 ?
Response: 16.7

Query: Given the compound O=c1c(/C=N/Nc2ccc(C(F)(F)F)cc2)coc2cc3oc(-c4cccc(Cl)c4)cc3cc12 , what is its reported IC50?
Response: 32800

Query: May I ask what IC50 has been recorded for C/C(=C\C1=CCN(C(=O)CCc2ccccc2)C(=O)C1)N1C(=O)c2ccccc2C1=O ?
Response: 2.07

Query: I am curious: what IC50 value has been reported for C/C=C1/C(O[C@@H]2O[C@H](CO)[C@@H](O)[C@H](O)[C@H]2O)OC=C(C(=O)OC)C1CC(=O)OCCc1ccc(O)c(O)c1 (stereo partly drawn) ?
Response: 2760

Query: Given the compound O=c1c(/C=N/Nc2ccc(C(F)(F)F)cc2)coc2c1ccc1oc(-c3cccc(F)c3)cc12 , what is its reported IC50?
Response: 15800
